Recorded pIC50, one value per entry.
# Tested on: A549
# Experiment: Antiproliferative activity against human A549 cells assessed as cell viability after 24 hrs by MTT assay
# Type: functional, cell-based
# Assay context: A549, 24 h
pIC50: −log10 of the molar value.

Compound	Test target	Value qualifier	pIC50
Fc1ccc(C2CC(c3ccc(Cl)cc3)=NN2c2ccc(-c3ccccc3)nn2)cc1 (stereo unspecified)	A549	<	4.00
COc1ccc(C2=NN(c3ccc(-c4ccccc4)nn3)C(c3ccc(C(F)(F)F)cc3)C2)cc1 (stereo unspecified)	A549	<	4.00
COc1ccc(C2=NN(c3ccc(-c4ccccc4)nn3)C(c3ccc(OC)cc3)C2)cc1 (stereo unspecified)	A549	<	4.00
Clc1ccc(C2CC(c3ccccc3)=NN2c2ccc(-c3ccccc3)nn2)cc1 (stereo unspecified)	A549	=	4.00
COc1ccc(C2=NN(c3ccc(-c4ccccc4)nn3)C(c3ccc(Cl)cc3)C2)cc1 (stereo unspecified)	A549	=	4.00
COc1cc(C2CC(c3ccc(Cl)cc3)=NN2c2ccc(-c3ccccc3)nn2)cc(OC)c1OC (stereo unspecified)	A549	=	4.08
COc1ccc(C2CC(c3ccc(Cl)cc3)=NN2c2ccc(-c3ccccc3)nn2)c(OC)c1 (stereo unspecified)	A549	<	4.00
COc1ccc(C2CC(c3ccc(Cl)cc3)=NN2c2ccc(-c3ccccc3)nn2)cc1 (stereo unspecified)	A549	=	4.00
FC(F)(F)c1ccc(C2CC(c3ccc(Cl)cc3)=NN2c2ccc(-c3ccccc3)nn2)cc1 (stereo unspecified)	A549	<	4.00
COc1ccc(C2=NN(c3ccc(-c4ccccc4)nn3)C(c3ccc(OC)cc3OC)C2)cc1 (stereo unspecified)	A549	=	4.00
COc1ccc(C2=NN(c3ccc(-c4ccccc4)nn3)C(c3ccc(F)cc3)C2)cc1 (stereo unspecified)	A549	<	4.00
COc1ccc(C2CC(c3ccccc3)=NN2c2ccc(-c3ccccc3)nn2)cc1 (stereo unspecified)	A549	=	4.04
Clc1ccc(C2=NN(c3ccc(-c4ccccc4)nn3)C(c3ccc(Cl)cc3)C2)cc1 (stereo unspecified)	A549	<	4.00
COc1cc(C2CC(c3ccccc3)=NN2c2ccc(-c3ccccc3)nn2)cc(OC)c1OC (stereo unspecified)	A549	=	4.08
FC(F)(F)c1ccc(C2CC(c3ccccc3)=NN2c2ccc(-c3ccccc3)nn2)cc1 (stereo unspecified)	A549	=	5.04
COc1ccc(C2CC(c3ccccc3)=NN2c2ccc(-c3ccccc3)nn2)c(OC)c1 (stereo unspecified)	A549	=	5.02
c1ccc(C2=NN(c3ccc(-c4ccccc4)nn3)C(c3ccccc3)C2)cc1 (stereo unspecified)	A549	<	4.00
Fc1ccc(C2CC(c3ccccc3)=NN2c2ccc(-c3ccccc3)nn2)cc1 (stereo unspecified)	A549	=	4.05
COc1ccc(C2=NN(c3ccc(-c4ccccc4)nn3)C(c3ccccc3)C2)cc1 (stereo unspecified)	A549	=	4.12
Clc1ccc(C2=NN(c3ccc(-c4ccccc4)nn3)C(c3ccccc3)C2)cc1 (stereo unspecified)	A549	=	4.01
COc1ccc(C2=NN(c3ccc(-c4ccccc4)nn3)C(c3cc(OC)c(OC)c(OC)c3)C2)cc1 (stereo unspecified)	A549	<	4.00
